IC50 values for the molecules below.
Target: USP30 (Homo sapiens, UniProt Q70CQ3)
Sequence (Q70CQ3 57-517): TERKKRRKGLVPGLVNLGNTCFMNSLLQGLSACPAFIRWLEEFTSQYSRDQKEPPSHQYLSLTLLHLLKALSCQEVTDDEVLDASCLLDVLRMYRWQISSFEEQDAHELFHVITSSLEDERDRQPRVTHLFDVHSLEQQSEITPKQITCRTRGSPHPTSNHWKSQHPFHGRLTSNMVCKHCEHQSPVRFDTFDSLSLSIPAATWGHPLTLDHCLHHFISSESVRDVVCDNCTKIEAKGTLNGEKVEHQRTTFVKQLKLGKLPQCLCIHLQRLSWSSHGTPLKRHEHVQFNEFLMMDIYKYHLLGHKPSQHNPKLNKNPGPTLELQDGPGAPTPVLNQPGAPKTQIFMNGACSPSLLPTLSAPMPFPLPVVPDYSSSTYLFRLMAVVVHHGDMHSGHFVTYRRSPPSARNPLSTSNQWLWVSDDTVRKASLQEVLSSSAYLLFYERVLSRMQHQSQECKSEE
Number only, in nM; omit the unit.

molecule: C#Cc1cccc(-c2cc(NC(=O)CC3CCN(C#N)C3)on2)c1 (stereo not shown) [IMP-2587]
IC50, nM: 12.6

Which IC50 value is on record for N#CN1CC[C@H](CC(=O)Nc2cc(-c3cccc(Cl)c3)no2)C1 [compound 1, reference compound] ?
18.3

Which IC50 value is on record for N#CN1CC[C@@H](NC(=O)c2cc(-c3ccccc3Oc3ccc(N=[N+]=[N-])cc3)n[nH]2)C1 [IMP-2586] ?
16.3

Which IC50 value is on record for N#CN1CC[C@@H](NC(=O)c2cc(-c3ccccc3Oc3ccccc3)n[nH]2)C1 [compound 3, reference compound] ?
4.8

====

pKi values for the molecules below.
Target: USP30 (Homo sapiens)
Sequence (Q70CQ3 57-517): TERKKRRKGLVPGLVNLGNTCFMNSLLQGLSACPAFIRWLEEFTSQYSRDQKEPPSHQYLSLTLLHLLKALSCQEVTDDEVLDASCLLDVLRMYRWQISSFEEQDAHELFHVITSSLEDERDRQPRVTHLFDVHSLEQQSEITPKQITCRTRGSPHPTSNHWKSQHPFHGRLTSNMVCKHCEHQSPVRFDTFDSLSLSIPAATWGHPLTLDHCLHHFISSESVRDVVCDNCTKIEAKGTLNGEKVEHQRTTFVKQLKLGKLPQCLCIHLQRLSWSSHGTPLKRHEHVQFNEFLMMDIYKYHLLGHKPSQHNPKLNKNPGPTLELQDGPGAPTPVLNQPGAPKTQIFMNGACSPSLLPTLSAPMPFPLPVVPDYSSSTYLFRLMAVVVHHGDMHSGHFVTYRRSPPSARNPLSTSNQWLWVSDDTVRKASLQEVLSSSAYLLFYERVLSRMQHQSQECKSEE
Here pKi is given on a logarithmic scale as minus log10 of the concentration in mol/L.

molecule: C#Cc1cccc(-c2cc(NC(=O)CC3CCN(C#N)C3)on2)c1 (centres unmarked) [IMP-2587]
target-of-assay: USP30 (Homo sapiens)
pKi: 7.37

Which pKi value is on record for N#CN1CC[C@@H](NC(=O)c2cc(-c3ccccc3Oc3ccc(N=[N+]=[N-])cc3)n[nH]2)C1 [IMP-2586] ?
8.25
